Every entry's value here was drawn from ChEMBL document CHEMBL1201862.

- Test system: UACC-62
- assay: NCI tumour cell line growth inhibition, 48 h
Calls of active or inactive are those of the source. No stated cut-off is given here; in the data, active = GI50 up to about 1.1 µM and inactive = higher.
measure.name: GI50

Here's what some known entries look like.
INSERT INTO assay_data (compound, measure_name, data_value) VALUES
  ('COC1=CC(=O)C=C(OC)C1=O [2,6-DIMETHOXYQUINONE]', 'GI50', '5.33 µM (inactive)'),
  ('CCOc1ccc(/N=C/c2cccc3cccnc23)cc1', 'GI50', '> 100 µM (inactive)'),
  ('O=C1/C(=C/c2ccc(Cl)cc2)CNC/C1=C\c1ccc(Cl)cc1', 'GI50', '2.07 µM (inactive)');

Value sought: GI50, system UACC-62, item CCSSCS(C)(=O)=O . Result: 60.5 µM (inactive)

// compound CC(C)=C=CP(=O)(O)c1ccccc1 , assay UACC-62, GI50 value: > 100 µM (inactive)

Short answer on UACC-62 for Nc1nc(-c2ccccc2)c(-c2ccccc2)c(-c2nc(N)nc(-c3ccccc3)c2-c2ccccc2)n1 , GI50: 85.3 µM (inactive)

Let me check: CCC(C)NC(=S)N/N=C(\C)c1nc2cccnc2[nH]1 (configuration not stated) , system UACC-62, measured GI50 is 6.11 µM (inactive)

Measured on UACC-62, COc1cc(OC)c2c(=O)c(OC)c(-c3ccc4c(c3)OCO4)oc2c1OC has a documented GI50 of 98.9 µM (inactive)

GET /values?item= COC(=O)c1cc(C)ccc1CC(Cc1ccccc1C)C(=O)OC (configuration not stated) &system= UACC-62 returns GI50: 27.5 µM (inactive)

Summary: Cc1nn(-c2ccccc2)c2c1C(c1cc3ccccc3nc1Cl)NC(=S)N2 (configuration not stated) , UACC-62, GI50 = 76.7 µM (inactive)

Known value: UACC-62 GI50 of the compound COC(=O)NN(C(=O)OC)c1c(-c2ccccc2)nc(SC)n1N equals > 100 µM (inactive)

# value of GI50, UACC-62, item NCCCNCCSSCCCCS(=O)O = 15.7 µM (inactive)

---

- Test system: T47D
- assay: NCI tumour cell line growth inhibition, 48 h
The source made the active and inactive calls. No stated cut-off is given here; in the data, active = GI50 up to about 1.1 µM and inactive = higher.
Allowed answers: active, inactive

Example cases with answers are listed next.
INSERT INTO results (molecule, label_value) VALUES
  ('O=[N+]([O-])C(=C1Nc2ccccc2N1)/C(Cl)=C(/Cl)N1CCOCC1', 'inactive'),
  ('CN(C)c1ccc(N2C(=S)SC(=N\c3ccccc3)/C2=N/c2ccccc2)cc1', 'inactive'),
  ('CCC(C)C(N)C(=O)N/N=C\c1c2c(nc3ccccc13)-c1cc3c(c(=O)n1C2)COC(=O)[C@]3(O)CC (stereo not given in full)', 'active'),
  ('O=C(Nc1ccc2ncccc2c1)Nc1ccc2ncccc2c1', 'inactive'),
  ('COc1ccc(-c2c(CN3CCOCC3)sc3nc4ccccc4n23)cc1', 'inactive'),
  ('OCCN(CO)CO', 'inactive'),
  ('COc1nc2ccc(CNc3ccc(C(=O)O)cc3)cc2nc1OC', 'inactive'),
  ('O=C1c2ccccc2-c2cc([N+](=O)[O-])c([N+](=O)[O-])cc21', 'active'),
  ('Cc1nn(-c2ccccc2)c2c1C(c1cc3ccccc3nc1Cl)NC(=S)N2 (stereo not given)', 'inactive'),
  ('COc1ccc(-c2nc(N)c3ncn(C4OC(CO)C(O)C4O)c3n2)cc1 (stereo not given)', 'inactive');

query: Please let me know the test result on file for N[C@H]1CCN(c2c(F)cc3c(=O)c(C(=O)O)cn4c3c2Oc2c-4ccc3c2ccc2ccccc23)C1 .
result: inactive

query: Outcome? O=C(NCCNCCCNC(=O)c1cc(-c2ccccc2)nc2ccccc12)c1cccc(O)c1O
result: inactive

query: Assay result, entry Nc1c(C(=O)c2ccc(Cl)cc2)[nH]c(NCc2ccccc2)c1C(=S)Nc1ccccc1 — outcome?
result: inactive

query: Called result for Oc1cc(CF)nc(S)n1
result: inactive

query: Tell me the assay call for COC(=O)c1cc(C(=O)OC)cc(-c2ccc3c(c2)-c2nc4c(c(-c5ccc(OC)cc5)c2CC3)CCc2ccc(-c3cc(C(=O)OC)cc(C(=O)OC)c3)cc2-4)c1 please.
result: inactive

query: Look up the recorded call for O=[N+]([O-])c1ccc2nc3c(nc2c1)-c1c2ccccc2cc2cccc-3c12 in this test.
result: active

query: What was the test verdict on COC(=O)Cc1c(C2=Nc3ccccc3C2(O)CC(=O)OC)[nH]c2ccccc12 (stereo not given) ?
result: inactive

query: What is the recorded call for this molecule in the test? Cc1cc(C2(c3cc(C)c(O)c(C(=O)O)c3)OS(=O)(=O)c3ccccc32)cc(C(=O)O)c1O
result: inactive

query: Dear colleague, could you share the recorded outcome for O=S(=O)(Nc1nc2ccccc2nc1N1CCCCCC1)c1ccccc1 when you have a moment?
result: inactive

query: For Cc1cc(C)nc(NS(=O)(=O)c2ccc(NNc3c4ccccc4nc4c(C(=O)Nc5ccc(S(=O)(=O)N=C(N)N)cc5)cccc34)cc2)n1 , what call appears in the results of this test?
result: inactive
